Tested on: HepG2 cancer cells
Experiment: Anticancer activity, cell viability by CCK-8, HepG2
Assay type: cell-based
Conditions: HepG2, 10 μM, 72 hours
measurement kind: Cell viability (% of Con. 10 μM) HepG2

compound	measurement kind	meas value
CP(C)(=O)c1ccccc1Nc1nc(Nc2ccc3ncsc3c2)ncc1Cl [compound 11]	Cell viability (% of Con. 10 μM) HepG2	28 % of Con.
CP(C)(=O)c1ccccc1Nc1nc(Nc2cccc3cc[nH]c23)ncc1Cl [compound 71]	Cell viability (% of Con. 10 μM) HepG2	63 % of Con.
CP(C)(=O)c1ccccc1Nc1nc(Nc2ccc3[nH]nc(-c4ccc(C#N)cc4)c3c2)ncc1Cl [compound 105]	Cell viability (% of Con. 10 μM) HepG2	55 % of Con.
Cn1cc(-c2n[nH]c3ccc(Nc4ncc(Cl)c(Nc5ccccc5P(C)(C)=O)n4)cc23)cn1 [compound 94]	Cell viability (% of Con. 10 μM) HepG2	30 % of Con.
CP(C)(=O)c1ccccc1Nc1nc(NC2CCCCC2)ncc1Cl [compound 16]	Cell viability (% of Con. 10 μM) HepG2	82 % of Con.

// each compound listed below needs its Cell viability (% of Con. 10 μM) HepG2
1. COc1cc2c(cc1Nc1ncc(Cl)c(Nc3ccccc3P(C)(C)=O)n1)CN(C(=O)C(F)(F)F)CC2 [compound 62]
2. CP(C)(=O)c1ccccc1Nc1nc(Nc2ccc3c(c2)CCNC3)ncc1Cl [compound 49]
3. CCCn1cc(-c2n[nH]c3ccc(Nc4ncc(Cl)c(Nc5ccccc5P(C)(C)=O)n4)cc23)cn1 [compound 95]
4. CP(C)(=O)c1ccccc1Nc1nc(Nc2ccc3[nH]nc(-c4ccncc4)c3c2)ncc1Cl [compound 104]
5. Cc1cc2cc(Nc3ncc(Cl)c(Nc4ccccc4P(C)(C)=O)n3)ccc2[nH]1 [compound 69]

Result block:
1: 26 % of Con.; 2: 31 % of Con.; 3: 39 % of Con.; 4: 30 % of Con.; 5: 29 % of Con.
